Lab note: Ki readings collected with 5-hydroxytryptamine receptor 6 (Homo sapiens) for the following molecules.
Sequence (P50406 whole entry): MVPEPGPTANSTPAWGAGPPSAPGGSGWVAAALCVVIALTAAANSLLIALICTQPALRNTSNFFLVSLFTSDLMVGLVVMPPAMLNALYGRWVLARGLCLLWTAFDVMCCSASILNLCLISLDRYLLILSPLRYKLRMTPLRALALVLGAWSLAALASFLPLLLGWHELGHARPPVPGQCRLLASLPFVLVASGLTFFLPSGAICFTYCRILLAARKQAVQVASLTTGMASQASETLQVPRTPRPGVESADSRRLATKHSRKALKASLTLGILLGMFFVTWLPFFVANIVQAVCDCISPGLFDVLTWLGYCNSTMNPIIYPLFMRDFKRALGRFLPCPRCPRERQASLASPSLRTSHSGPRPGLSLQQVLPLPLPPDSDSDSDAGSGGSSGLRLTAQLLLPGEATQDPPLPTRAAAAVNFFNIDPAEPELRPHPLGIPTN
Express it in nM; write the number only.

Query: Query Ki on 5-hydroxytryptamine receptor 6 (Homo sapiens) for COc1ccc(S(=O)(=O)n2c3c(c4cc(OC)ccc42)C(CN(C)C)CCC3)cc1 (centres undefined)
Reply: 47

Query: Record COc1ccc2c(c1)c1c(n2S(=O)(=O)c2ccccc2)CCCC1CN(C)C (centres undefined) : what is its Ki with 5-hydroxytryptamine receptor 6 (Homo sapiens)?
Reply: 2.3

Query: What value of Ki on 5-hydroxytryptamine receptor 6 (Homo sapiens) does COc1ccc2c(c1)c1c(n2S(=O)(=O)Cc2ccccc2)CCCC1CN(C)C (centres undefined) have?
Reply: 200

Query: // fetch 5-hydroxytryptamine receptor 6 (Homo sapiens) Ki for COc1ccc2c(c1)c1c(n2S(=O)(=O)c2ccc3ccccc3c2)CCCC1CN(C)C (centres undefined)
Reply: 5.1

Query: Provide the documented Ki with 5-hydroxytryptamine receptor 6 (Homo sapiens) as the system for COc1ccc2c(c1)c1c(n2S(=O)(=O)c2ccc(C)cc2)CCCC1CN(C)C (centres undefined)
Reply: 9.4

Query: API: value(readout= Ki, system= 5-hydroxytryptamine receptor 6 (Homo sapiens), query= COc1ccc(OC)c(S(=O)(=O)n2c3c(c4cc(OC)ccc42)C(CN(C)C)CCC3)c1 (centres undefined) )
Reply: 0.3

Query: Identify the measured Ki of COc1ccc2c(c1)c1c(n2S(=O)(=O)c2ccc(I)cc2)CCCC1CN(C)C (centres undefined) for 5-hydroxytryptamine receptor 6 (Homo sapiens).
Reply: 2.4

Query: Lab note: need Ki with 5-hydroxytryptamine receptor 6 (Homo sapiens) for entry COc1ccc2c(c1)c1c(n2Cc2ccc(N)cc2)CCCC1 , please look it up.
Reply: 6000

Query: Entry COc1ccc2c(c1)c1c(n2S(=O)(=O)c2cccc3cccnc23)CCCC1CN(C)C (centres undefined) , system 5-hydroxytryptamine receptor 6 (Homo sapiens): what Ki was measured?
Reply: 7.6

Ref: ChEMBL document CHEMBL1147522
